Data provenance is a melting point compilation (Tetko et al.; mined from patent text by program, amines drawn as free bases though some values may be those of a salt).

melting point for assorted compounds
QUANTITY: melting point

compound=Cc1ccccc1C=C1CCn2c1nc1ccc(CO)cc1c2=O value="222 to 224 °C"
compound="COc1cc(OC)c(C2CCN(C)CC2=O)c(OC)c1 (single isomer, unassigned; (+))" value="110 to 112 °C"
compound="Oc1cccc([C@H]2CCCC[C@H]2N2CCCC2)c1 (relative stereo)" value="124 to 126 °C"
compound=CC(C)(N)COC(=O)CCc1cc(C(C)(C)C)c(O)c(C(C)(C)C)c1 value="97 to 99 °C"
compound=Cc1nc(-c2ccccc2)nc(-c2cccc([N+](=O)[O-])c2)c1C(=O)OCCO value="84 to 86 °C"
compound=CCc1nc2ccccc2c(=O)n1-c1ccc(F)cc1 value="178 °C"
compound=COc1ccc(Cn2cnc3c(-c4ccco4)nc(N(C(C)=O)C(C)=O)nc32)cc1 value="167 to 168 °C"
compound=O=C1CCC(N2CCC(n3c(=O)[nH]c4ccccc43)CC2)CC1 value="221 to 223 °C"
compound="C=CCC(CCC=NO)C1=C(O)CC(c2ccc(N)cc2)CC1=O (stereo not given)" value="92 °C"
compound="C[Si](C)(C)OC1(C#N)CCOc2c(Cl)cc(-c3ccccc3)cc21 (stereo not given)" value="99 to 100 °C"
compound=O=C(/C=C/c1cccc([N+](=O)[O-])c1)N1CCN(C(=O)c2cc(C(F)(F)F)cc(C(F)(F)F)c2)[C@H](Cc2c[nH]c3ccccc23)C1 value="127 to 133 °C"
compound=C=CCNc1cc(C(=O)OCC)nc2cn[nH]c12 value="140 to 145 °C"
compound=c1ccc(Nc2nnn[nH]2)cc1 value="208 to 209 °C"
compound=CCCCCCNc1nc[nH]c2nccc1-2 value="147 to 148 °C"
compound=CCOC(=O)C(=CNC(C)(C)C)C(=O)c1cc(F)c(Cl)nc1Cl value="78 °C"
compound=ClCc1coc(-c2ccc3ccccc3c2)n1 value="116 to 117 °C"
compound=COc1ccc(C(=O)Nc2cccnc2)cc1Nc1cccc(C(F)(F)F)c1 value="184 to 185 °C"
compound=CCCCCCCCc1ccc(CCC(CO)(CO)NC(C)=O)cc1 value="66 to 68 °C"
compound=O=C1Cc2cc(-c3cccc([N+](=O)[O-])c3)ccc2N1 value="269 °C"
compound=Cc1cc(-c2nc3cccnn3c2-c2ccnc(NC(=O)c3ccc(N(C)C)cc3)c2)ccc1F value="245 to 246 °C"

* * *

QUANTITY: melting point

compound=CN1C(=O)CN=C(c2ccccc2F)c2cc(C#N)ccc21 value="177 °C"
compound="CCOC(=O)C1Cc2ccc(N(C)C)cc2NC1=O (stereo unspecified)" value="181 to 182 °C"
compound=CNC(=O)c1cc2[nH]cnc2c(Cl)c1NC(=O)c1cc(C(F)(F)F)nn1-c1ncccc1Cl value="190 to 192 °C"
compound=COc1ccc(C2(C#Cc3ccc(Cl)cc3)CCC(=O)CC2)cc1OC1CCCC1 value="104 to 105 °C"
compound=O=C(CCC1CCCC1)Nc1cccc2ncccc12 value="135 to 138 °C"
compound=CN(C)c1nccc(N2CCN(C=O)CC2)n1 value="116 °C"

* * *

QUANTITY: melting point

compound=Cc1cc(-c2cccc(C(=O)CC(=O)OC(C)(C)C)c2)on1 quantity="melting point" value="50 to 56 °C"
compound=CC(C)Cn1c(=O)[nH]c(=O)c2nc(-c3ccc(/C=C/C(=O)O)cc3)[nH]c21 quantity="melting point" value="> 300 °C"
compound=COCCO[C@@H]1c2ccn3c(Br)c(C)nc3c2N[C@H](c2ccccc2)[C@H]1O quantity="melting point" value="153 to 154 °C"
compound="CN1CC(c2cccc(OCc3ccc4ccccc4n3)c2)OC1=O (stereo not given)" quantity="melting point" value="75 to 77 °C"
compound="CC1(C)CC(Cl)C(=Cc2ccc(F)cc2)C1=O (stereo not given)" quantity="melting point" value="69 °C"
compound=CCCCCCCCCCCC1=NCCN1CCO quantity="melting point" value="40 to 42 °C"
compound="CCOC(=O)C1=C(C)Nc2ccnc(OC(C)C)c2C1c1ccccc1Cl (stereo not given)" quantity="melting point" value="135 to 136 °C"
compound=N#Cc1ccc(N2C(=O)[C@@H]3[C@H](O)CCN3C2=S)c2ccccc12 quantity="melting point" value="215 to 216 °C"
compound="COc1cccc2c1S(=O)(=O)NC(C1CCCCC1)N2 (stereo not given)" quantity="melting point" value="221 to 223 °C"
compound=CC(=O)n1c2ccccc2c2nc3ccccc3cc21 quantity="melting point" value="163 to 165 °C"
